# ASSAY SUMMARY: NCI Yeast Anticancer Drug Screen. Data for the mec2-1 strain (AID 157)
# SETTINGS: S. cerevisiae mec2-1 strain, at 50.0 µM (retest, dose inferred, filed as 5.0), hits give high values
The panel holds about 79,000 compounds, 15% with a hit somewhere; the sample as a whole holds those more often. Where a SMILES comes first, the peptide text is derived from it. The star is where a group is joined. Cbz = O=C(OCc1ccccc1)*
We begin with a simple list: items and their reported growth inhibition.
Quick reminder: number only, in %, skip the unit.

Guide cases for growth inhibition, answers given:
growth inhibition recorded for this compound, Cc1ccc(/C=C/C(=O)/C=C/c2ccc(C)o2)o1 , is 99

growth inhibition recorded for this compound, COc1ccc([N+](=O)[O-])cc1NC(=O)Nc1ccc(C(=O)OCC(C)C)cc1 , is 53

growth inhibition recorded for this compound, C=CCOc1ccccc1C(=O)OC , is -4

growth inhibition recorded for this compound, O=c1oc2c3ccc4ccccc4c3n(CCCN3CCCCC3)c2c2ccccc12 , is 17

growth inhibition recorded for this compound, CN(C)CCNC(=O)C(c1ccccc1)c1ccccc1 , is -4

growth inhibition recorded for this compound, O=C(O)c1c[nH]c2cc(Cl)ccc2c1=O , is 5

growth inhibition recorded for this compound, O=[N+]([O-])c1ccc(CSSCc2ccc([N+](=O)[O-])cc2)cc1 , is 39

growth inhibition recorded for this compound, COC(=O)c1ccc(OCCC(=O)CCl)cc1 , is 52

growth inhibition recorded for this compound, CC(C)c1ccc(/C=C(\NC(=O)c2ccccc2)c2nc3ccccc3[nH]2)cc1 , is 53

growth inhibition recorded for this compound, O=C(NC(Cc1ccc(O)cc1)C(=O)NC(Cc1ccccc1)C(=O)O)OCc1ccccc1 (stereo not drawn) (Cbz-Tyr-Phe-OH; configuration not given here) , is -1

---
growth inhibition recorded for this compound, CC1CCC(C(C)C2C(O)CC3C4CCC5CC(O)CCC5(C)C4CCC32C)NC1 (stereo unspecified) , is 96

growth inhibition recorded for this compound, CCCCc1c2c(nc3c1CC/C(=C\c1ccc([N+](=O)[O-])cc1)C3=O)CCCC2 , is 94

growth inhibition recorded for this compound, O/N=C(/Cc1ccccc1)c1ccc2c(c1)OCO2 , is -11

growth inhibition recorded for this compound, O=C(COC(=O)C(c1ccccc1)c1ccccc1)c1ccc(Br)cc1 , is 23

growth inhibition recorded for this compound, C/C=C\C(/C=C/C)(C(=O)OCCN(C)C)C(/C=C\C)(/C=C/C)C(=O)OCCN(C)C (stereo unspecified) , is 97

growth inhibition recorded for this compound, O=C1C2C3C=CC(C2C(=O)N1CN1CCOCC1)C1C2C(=O)N(CN4CCOCC4)C(=O)C2C31 (stereo unspecified) , is 3

growth inhibition recorded for this compound, CN1CCN(C2=C(Cl)C3(OCCS3)C(F)(F)C2(F)F)CC1 (stereo unspecified) , is 53

---

We begin with a simple list: items and their reported growth inhibition.
# ASSAY SUMMARY: NCI Yeast Anticancer Drug Screen. Data for the sgs1 mgt1 strain (AID 161);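 note: 0% = growth of cultures given vehicle only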
# SETTINGS: S. cerevisiae sgs1 mgt1 strain, at 50.0 µM, hits give high values
The panel holds about 79,000 compounds, 15% with a hit somewhere; the sample as a whole holds those more often.
Quick reminder: number only, in %, skip the unit.

growth inhibition recorded for this molecule, CS(=O)(=O)OCC(COS(C)(=O)=O)C(c1ccccc1)c1ccccc1Br (configuration not stated) , is 37.1

---
growth inhibition recorded for this molecule, CC(/C=C/c1ccco1)=N\NC(=S)NCC(C)C , is 81.2

growth inhibition recorded for this molecule, N#Cc1c(-c2ccc(Cl)c(Cl)c2)c(-c2ccc(Cl)c(Cl)c2)nn(CC(=O)O)c1=O , is 50.7

---

# ASSAY SUMMARY: NCI Yeast Anticancer Drug Screen. Data for the cln2 rad14 strain (AID 165);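 note: 0% = growth equal to vehicle treated cultures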
# SETTINGS: S. cerevisiae cln2 rad14 strain, at 50.0 µM, hits give high values
Compounds without any hit were thinned out: in the full panel of roughly 79,000, 15% have a hit.
MEASURED QUANTITY: growth inhibition (%)
Quick reminder: number only, in %, skip the unit.

growth inhibition recorded for this compound, CC(=O)C1=C(C)O/C(=C/c2ccc(Cl)cc2)C1=O , is 79

growth inhibition recorded for this compound, CCN(CC)C(=O)C(C)OC(C)=O (stereo not drawn) , is -16

growth inhibition recorded for this compound, NC(=S)N/N=C/c1ccc([N+](=O)[O-])o1 , is 13.7

---
growth inhibition recorded for this compound, CC1=C(C(=O)OCCO[N+](=O)[O-])C(c2cccc([N+](=O)[O-])c2)C(C(=O)OC(C)C)=C(C)N1 (stereo not drawn) , is 81.5

growth inhibition recorded for this compound, NC(=O)C(=O)N/N=C/c1ccc([N+](=O)[O-])o1 , is 2.8

---

# ASSAY SUMMARY: NCI Yeast Anticancer Drug Screen. Data for the mec2-1 strain (AID 157)
# SETTINGS: S. cerevisiae mec2-1 strain, at 5.0 µM (retest, dose inferred, filed as 0.5), hits give high values
This is part of a sample that, as a whole, favours compounds with a hit. Of some 79,000 tested, about 15% had one in any assay.
MEASURED QUANTITY: growth inhibition (%)
Quick reminder: number only, in %, skip the unit.

Guide cases for growth inhibition, answers given:
growth inhibition recorded for this compound, CN(C)C(=S)/N=c1\ss/c(=N\C(=S)N(C)C)n1Cc1ccco1 , is -2

growth inhibition recorded for this compound, O/N=C(/Cc1ccccc1)c1ccc2c(c1)OCO2 , is -14

growth inhibition recorded for this compound, O=[N+]([O-])c1ccc(O)c(C2CCCCC2)c1 , is 67

growth inhibition recorded for this compound, CN(C)CCC(/C=C/c1ccccc1)=N\Nc1ccc(Cl)cc1 , is 17

growth inhibition recorded for this compound, S=c1nc(C(c2ccccc2)c2ccccc2)[nH][nH]1 , is -1

growth inhibition recorded for this compound, Nc1ccc(C(=O)/C=C/c2ccccn2)cc1 , is -6

growth inhibition recorded for this compound, OC(CC(CC(O)(C(F)(F)F)C(F)(F)F)=NN=C(CC(O)(C(F)(F)F)C(F)(F)F)CC(O)(C(F)(F)F)C(F)(F)F)(C(F)(F)F)C(F)(F)F , is 31

growth inhibition recorded for this compound, O=C1C(Br)=C(Sc2ccc([N+](=O)[O-])cc2)C(=O)c2ccccc21 , is 64

---
growth inhibition recorded for this compound, C=C1CC2(CCOc3ccccc32)OC1=O (stereo unspecified) , is 17

growth inhibition recorded for this compound, O=c1c2ccccc2sc2cccc(NCCCN3CCN(CCCNc4cccc5sc6ccccc6c(=O)c45)CC3)c12 , is -2

growth inhibition recorded for this compound, O=[N+]([O-])c1c[nH]c2ncnc(SCc3ccccc3)c12 , is 99

---

# ASSAY SUMMARY: NCI Yeast Anticancer Drug Screen. Data for the sgs1 mgt1 strain (AID 161);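 note: 0% = growth of cultures given vehicle only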
# SETTINGS: S. cerevisiae sgs1 mgt1 strain, at 50.0 µM
This is part of a sample that, as a whole, favours compounds with a hit. Of some 79,000 tested, about 15% had one in any assay. Active and inactive are the calls of the source. Cut-off read from the data, not from the text of the source: active = growth inhibition above about 70%; inactive = the rest.
Could you please pick one outcome from this set? active, inactive

Consider the worked cases shown below.
// return assay outcome for CS(=O)(=O)OCCN(CCOS(C)(=O)=O)c1ccc(C=Nc2ccc3ccccc3c2)cc1 active

// return assay outcome for COc1ccc([N+](=O)[O-])cc1NC(=O)Nc1ccc(C(=O)OCC(C)C)cc1 inactive

---
// return assay outcome for CCCCCCCCCCCCCCCCOc1ccc(S(=O)(=O)N/N=c2/sc3ccc(S(=O)(=O)O)cc3n2C)cc1C(=O)O active

// return assay outcome for O=[N+]([O-])c1c[nH]c2ncnc(SCc3ccccc3)c12 active

// return assay outcome for C=CCc1ccc2c(C)cc[n+](C)c2c1O active

// return assay outcome for CC(=O)N1c2ccccc2Sc2c1ccc1ccccc21 active

// return assay outcome for CN(C)C(=S)/N=c1\ss/c(=N\C(=S)N(C)C)n1Cc1ccco1 inactive

// return assay outcome for CC(C)C(O)(C(=O)OCN1C(=O)C2C3C=CC(C2C1=O)C1C2C(=O)N(COC(=O)C(O)(C(C)C)C(C)O)C(=O)C2C31)C(C)O (configuration not stated) inactive

// return assay outcome for CCCCNC(=S)N/N=C/c1cccc(C)n1 inactive

---

We begin with a simple list: items and their reported growth inhibition.
# ASSAY SUMMARY: NCI Yeast Anticancer Drug Screen. Data for the cln2 rad14 strain (AID 165);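 note: 0% = growth equal to vehicle treated cultures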
# SETTINGS: S. cerevisiae cln2 rad14 strain, at 5.0 µM (retest, dose inferred, filed as 0.5), hits give high values
About 79,000 compounds went through this panel and 15% of them were active in at least one assay; those are over-represented in the sample as a whole.
Quick reminder: number only, in %, skip the unit.

Guide cases for growth inhibition, answers given:
growth inhibition recorded for this compound, Cc1occc1C(=S)Nc1ccc(Cl)c(C(=O)OCC(F)(F)F)c1 , is 21

growth inhibition recorded for this compound, O=C(/C=C(\C(=O)c1ccccc1)N(/C(=C/C(=O)c1ccccc1)C(=O)c1ccccc1)c1ccccc1)c1ccccc1 , is -2

growth inhibition recorded for this compound, BrC1CCCCCC1 , is 6

---
growth inhibition recorded for this compound, C[C@]12CC[C@H]3[C@@H](CCC4=CC(=O)CC[C@@]43C)[C@@H]1CC[C@@H]2O[Si](O[C@H]1CC[C@H]2[C@@H]3CCC4=CC(=O)CC[C@]4(C)[C@H]3CC[C@]12C)(O[C@H]1CC[C@H]2[C@@H]3CCC4=CC(=O)CC[C@]4(C)[C@H]3CC[C@]12C)c1ccccc1 , is -6

growth inhibition recorded for this compound, Clc1ccc(CN2CCN(Cc3ccc(Cl)cc3)C2c2ccc(Cl)cc2)cc1 , is 26

growth inhibition recorded for this compound, CC[C@@]1(O)C[C@H](OC2CC(N(C)C)C(OC3CC(O)C(OC4CCC(=O)C(C)O4)C(C)O3)C(C)O2)c2c(cc3c(c2O)C(=O)c2c(O)cccc2C3=O)[C@H]1C(=O)OC (stereo not given in full) , is 92

growth inhibition recorded for this compound, CC(CO)CCC(=O)C(C)C1C(=O)CC2CC3CC(O)CCC3(C)CC21C (stereo not given) , is 4

growth inhibition recorded for this compound, NC(=O)C(CCc1cccc2ccccc12)c1ccccc1 (stereo not given) , is -5

growth inhibition recorded for this compound, COc1ccccc1NC(=O)O/N=C(/Cl)C(C)C , is 40

growth inhibition recorded for this compound, CCCCCCCCCCCCOCC[N+](CCO)(CCO)Cc1ccccc1 , is 97

growth inhibition recorded for this compound, OCCN1COc2cc3c(cc2C1)OCN(CCO)C3 , is 3

growth inhibition recorded for this compound, O=C(O)CCC(O)=C1S(=O)(=O)OCCOS1(=O)=O , is -42
